Task for the reader: assign each of the following compounds its reported activation.
# target of assay: Glucose-dependent insulinotropic receptor (Homo sapiens) (UniProt Q8TDV5)
# Sequence (Q8TDV5 whole entry, looked up): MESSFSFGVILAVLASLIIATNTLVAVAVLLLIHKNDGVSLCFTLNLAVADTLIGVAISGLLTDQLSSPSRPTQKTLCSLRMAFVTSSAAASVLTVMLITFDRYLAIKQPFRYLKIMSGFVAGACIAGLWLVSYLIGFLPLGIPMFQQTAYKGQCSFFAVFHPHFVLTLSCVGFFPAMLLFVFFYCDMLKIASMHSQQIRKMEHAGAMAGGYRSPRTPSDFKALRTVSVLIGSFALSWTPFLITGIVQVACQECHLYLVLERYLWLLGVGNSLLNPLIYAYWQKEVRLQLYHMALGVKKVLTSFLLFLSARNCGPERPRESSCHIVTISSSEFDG
# test description: off-target GPR119 activation – cell-based, PathHunter beta-arrestin, luminescence, triplicate, counter-screen for GPR151 activator project (AID 1508611);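 also: counterscreen on off-target GPR119 to flag nonselective hits from the GPR151 activator screen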
# condition set: GPR119 PathHunter beta-arrestin cells, 90 min, at 11.2 µM, hits give high values, 0 = compound-well median, 100 = enzyme-acceptor control
Among all 6,700 compounds or so, about 20 (0.3%) were called active. For the sample, actives were picked, then their nearest neighbours and some compounds at random.

Some compounds with known activation results, for comparison:
{"columns": ["compound", "activation"],
 "data": [
  ["CCOc1ccc(/C=C2N=C(/C=C/c3cccc(Cl)c3Cl)OC\\2=O)cc1", "0.65% (inactive)"],
  ["Cc1ccccc1CC1(CO)CCCN(Cc2ccncc2)C1 (stereo unspecified)", "-3.82% (inactive)"]
]}

Please state activation for every compound in the list that follows.
1. O=C(COc1ccc([N+](=O)[O-])cc1)Nc1ccc2oc(-c3cccc(F)c3)nc2c1
2. CCCCOc1ccccc1CNCC
3. O=[N+]([O-])c1ccc2ncnc(Nc3cccc(C(F)(F)F)c3)c2c1
4. CCOc1ccc(NC(=O)N2CCN(CC)CC2)cc1

Result string:
["-7.11% (inactive)", "0.16% (inactive)", "9% (inactive)", "6.5% (inactive)"]
